# Tested on: Pseud. aeruginosa EP-069
# Protocol: Antibacterial activity (MIC), Pseud. aeruginosa EP-069
# Assay type: cell-based
# Test Settings: Pseudomonas aeruginosa, EP069, Table 1
Assay Metric: MIC (mg/L)

The following compounds have reported results that may help.
- Compound: "CO[C@@]1(NC(=O)[C@H](NC(=O)c2csc3cc(OC(C)=O)c(OC(C)=O)cc3c2=O)c2ccc(O)cc2)C(=O)N2C(C(=O)O)=C(COC(C)=O)CS[C@@H]21"
  Unit Of Measure: "mg/L"
  MIC: 3.13
- Compound: "CCn1cc(C(=O)N[C@@H](C(=O)N[C@@H]2C(=O)N3[C@@H]2SC(C)(C)[C@@H]3C(=O)O)c2ccccc2)c(=O)c2cc(OC(C)=O)c(OC(C)=O)cc21"
  Unit Of Measure: "mg/L"
  MIC: 3.13
- Compound: "CCn1cc(C(=O)N[C@@H](C(=O)N[C@@H]2C(=O)N3C(C(=O)O)=C(CSc4nnnn4CC(=O)O)CS[C@H]23)c2ccc(O)cc2)c(=O)c2cc(OC(C)=O)c(OC(C)=O)cc21"
  Unit Of Measure: "mg/L"
  MIC: 3.13

(1) CCn1cc(C(=O)N[C@@H](C(=O)N[C@@H]2C(=O)N3C(C(=O)O)=C(CSc4nnc(C)s4)CS[C@H]23)c2ccc(O)cc2)c(=O)c2cc(O)c(O)cc21
(2) CC1(C)S[C@@H]2[C@H](NC(=O)[C@H](NC(=O)c3cnc4cccnc4c3O)c3ccccc3)C(=O)N2[C@H]1C(=O)O [reference compound]
// select label with min value of measured MIC from [ 1 , 2 ] Kindly state the label of the option you pick. 1
(1: 3.13 mg/L, 2: 12.5 mg/L)
